Recorded measurements of log10 TGI, one per entry
System: OVCAR-4 ovarian
assayName: NCI tumour cell line growth inhibition, 48 h
measurementKind: log10 TGI (log10 of the value in µM)

>>> resultvalue("O=C1CCCCC1=C(I)I")
1.39
>>> resultvalue("CC(C)(O)C1CCC(Nc2ccc3ncc(-c4cccc(C(F)(F)F)c4)n3n2)CC1 (stereo unspecified)")
1.10
>>> resultvalue("COC(=O)c1cc(-c2cc(OC)c(OC)c(OC)c2)[nH]c1N/N=C/c1c(Cl)cccc1Cl")
0.43
>>> resultvalue("CC(/C(=N/NC(=O)C(N)=O)c1c(Cl)ccc(Cl)c1O)C1(O)C(=O)Nc2ccccc21 (stereo unspecified)")
1.97
>>> resultvalue("C[C@H]1[C@H](C)CC[C@]2(C(=O)N3CCN(C)CC3)CC[C@]3(C)C(=CC[C@@H]4[C@@]5(C)C/C(=C/c6cccnc6)C(=O)C(C)(C)[C@@H]5CC[C@]43C)[C@H]12")
0.39

* * *

System: CAKI-1 renal
assayName: NCI tumour cell line growth inhibition, 48 h
measurementKind: TGI (µM)

>>> resultvalue("Cc1cc(C)c2c(c1)Nc1ccccc1P2c1ccccc1 (centres undefined)")
98.1
>>> resultvalue("C=CC(=O)N1CCN(c2nc(OC[C@@H]3CCCN3C)nc3c2CCN(c2cccc4cccc(C)c24)C3)C[C@@H]1CC#N")
2.46

* * *

Tested on: 786-0 renal
assayName: NCI tumour cell line growth inhibition, 48 h
measurementKind: TGI (µM)

>>> resultvalue("CC(C)(C)[Si](C)(C)OCC1OC(n2ccc(=O)[nH]c2=O)C(O[Si](C)(C)C(C)(C)C)[C@@]12O[C@H]2C(N)=O (stereo partly drawn)")
29.9
>>> resultvalue("CCc1cccc2c3c(sc12)C(c1ccc(Cl)cc1)C(C#N)=C(N)O3 (stereo not drawn)")
14.7
>>> resultvalue("CCN1CN(c2ccccc2)C2(CCN(CCCSc3ccc(F)cc3)CC2)C1=O")
26.6
>>> resultvalue("Cc1ccccc1NC(=O)C(=O)CC(=O)c1sc(Nc2ccccc2[N+](=O)[O-])nc1C")
48.3
>>> resultvalue("CCCCNc1c(CN)cnc2cc(Cl)ccc12")
40.2

* * *

Tested on: HCT-15 colon
assayName: NCI tumour cell line growth inhibition, 48 h
Each entry below carries its recorded TGI.
measurementKind: TGI

>>> resultvalue("C/C(=N\\NC(=S)NC1CCCC1)c1ccccn1")
"> 100 µM"
>>> resultvalue("CC1=C(O)C(=O)C[C@]2(C)[C@H]3CC=C4[C@@H]5CC(C)(C)CC[C@@H]5C(=O)[C@H](O)[C@@]4(C)[C@]3(C)CC[C@@H]12")
"> 50 µM"
>>> resultvalue("Cc1nn(-c2ccccc2)c2c1CC(=O)Nc1ccccc1-2")
"> 100 µM"
>>> resultvalue("N=C(N)C(N=Nc1ccccc1)C(N)=O (stereo not given)")
"> 100 µM"
>>> resultvalue("O=C1Nc2ccccc2C1Cc1ccc([N+](=O)[O-])cc1 (stereo not given)")
"> 100 µM"

* * *

Measured GI50, listed per entry.
System: NCI-H23 lung
assayName: NCI tumour cell line growth inhibition, 48 h
measurementKind: GI50

>>> resultvalue("COc1cc2c3c(n(CCCNCC(OC)OC)c(=O)c2cc1OC)-c1cc2c(cc1C3=O)OCO2")
"1.84 µM"
>>> resultvalue("O=C1CC(c2ccc3c(c2)OCO3)Nc2cc3c(cc21)OCO3 (stereo not given)")
"0.479 µM"
>>> resultvalue("O=C(CCCCCCSc1nc(-c2ccccc2)cc(-c2ccccc2)n1)NO")
"1.97 µM"
>>> resultvalue("O=Cc1cn(Cc2cccc(Cl)c2)c2ccccc12")
"9.33 µM"
>>> resultvalue("N=c1c2c(-c3ccccc3)c(-c3ccccc3)n(Cc3ccccc3)c2ncn1CCCO")
"4.32 µM"
>>> resultvalue("C=CC1=C[C@@H]2[C@@H]3O[C@]4(CC[C@H](O4)[C@@H](C)C[C@@H](O)C3=O)C[C@H](O)C3=NCC[C@@]32CC1")
"< 0.00333 µM"
>>> resultvalue("O=C1/C(=C/c2ccc([N+](=O)[O-])o2)Oc2ccc(Br)cc21")
"6.76 µM"
>>> resultvalue("CC1=CCC(OC(=O)C(C)(C)CCC(O)(C(=O)OC2(C(C)C)CCC3(C)OC3C2)C(C)C)(C(C)C)CC1 (stereo not given)")
"0.113 µM"
>>> resultvalue("COc1ccc(-c2nnc(SCC(=O)Nc3ccc(/C(C)=N\\O)cc3)n2-c2ccccc2)cc1OC")
"12.9 µM"
>>> resultvalue("CCCCCCC#Cc1ccccc1C#CCO")
"3.69 µM"
